Entries and their CCNE1 HIBIT Protein Quantification Maximum
Target: CCNE1 (Homo sapiens)
Construct: host or cells: HEK293-CCNE1-Hibit
Sequence (P24864 whole entry): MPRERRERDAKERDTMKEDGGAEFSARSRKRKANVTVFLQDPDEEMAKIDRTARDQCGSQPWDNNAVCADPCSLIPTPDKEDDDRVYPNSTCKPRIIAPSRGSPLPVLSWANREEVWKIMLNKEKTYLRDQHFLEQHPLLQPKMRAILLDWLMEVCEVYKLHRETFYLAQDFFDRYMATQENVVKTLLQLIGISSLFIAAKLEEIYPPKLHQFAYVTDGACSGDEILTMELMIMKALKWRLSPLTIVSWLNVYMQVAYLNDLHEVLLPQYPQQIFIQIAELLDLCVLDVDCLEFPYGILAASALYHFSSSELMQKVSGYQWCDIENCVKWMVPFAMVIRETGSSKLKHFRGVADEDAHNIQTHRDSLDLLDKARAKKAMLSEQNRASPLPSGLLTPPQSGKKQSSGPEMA
Experiment: HiBit Assay Protocol for CCNE1 (HIBIT protein quantification, degradation)
Format: cell-based
Details: HEK293-CCNE1-Hibit cells, compound treatment for 6 hours
Assay Readout: CCNE1 HIBIT Protein Quantification Maximum (%)

INSERT INTO measurements (molecule, measurement) VALUES
  ('CC1CCCC1N1C(=O)C2(CC2)c2cnc(NC3CCN(S(=O)(=O)N4CC5(CCCCN5CC5CCN(c6cccc7c6n(C)c(=O)n7C6CCC(=O)NC6=O)CC5)C4)CC3)nc21 (stereo not drawn)', 26),
  ('CC(c1cccc(S(=O)(=O)N2CC[C@H](Nc3ncc4c(n3)N([C@@H]3CCC[C@@H](O)C3)C(=O)C43CC3)[C@H](F)C2)c1)N1CCC(c2ccc3c(N4CCC(=O)NC4=O)nn(C)c3c2)CC1 (stereo partly drawn)', 45),
  ('CC1CCCC1N1C(=O)C2(CC2)c2cnc(NC3CCN(S(=O)(=O)N4CCC5(CCCN5C(=O)CCc5cccc6c5n(C)c(=O)n6C5CCC(=O)NC5=O)C4)CC3)nc21 (stereo not drawn)', 26);
